- assay_remarks: Plasma concentration in Wistar rat at 1 mg/kg, po after 60 mins
- Assay type: ADME, organism-based
- Parameters: dose 1 mg/kg, route oral
- condition_set: read-out: Drug uptake

smiles_code	concentration at 1 h
N#Cc1cccc(Oc2ccc(C(=O)N3CCCN(C4CCC4)CC3)cn2)c1	160 ng/mL

====

- System: Brain
- assay_remarks: Drug level in rat brain at 3 mg/kg, sc
- Format: ADME, organism-based
- Set-up: dose 3 mg/kg, route subcutaneous
- condition_set: in vivo, read-out: Drug uptake

smiles_code	assay_system	concentration
O=C(c1ccc(Oc2ccc(F)cc2)nc1)N1CCCN(C2CCC2)CC1	Brain	956 nM

====

- assay_system: Voltage-gated inwardly rectifying potassium channel KCNH2 (Homo sapiens)
- Sequence (Q12809 whole entry): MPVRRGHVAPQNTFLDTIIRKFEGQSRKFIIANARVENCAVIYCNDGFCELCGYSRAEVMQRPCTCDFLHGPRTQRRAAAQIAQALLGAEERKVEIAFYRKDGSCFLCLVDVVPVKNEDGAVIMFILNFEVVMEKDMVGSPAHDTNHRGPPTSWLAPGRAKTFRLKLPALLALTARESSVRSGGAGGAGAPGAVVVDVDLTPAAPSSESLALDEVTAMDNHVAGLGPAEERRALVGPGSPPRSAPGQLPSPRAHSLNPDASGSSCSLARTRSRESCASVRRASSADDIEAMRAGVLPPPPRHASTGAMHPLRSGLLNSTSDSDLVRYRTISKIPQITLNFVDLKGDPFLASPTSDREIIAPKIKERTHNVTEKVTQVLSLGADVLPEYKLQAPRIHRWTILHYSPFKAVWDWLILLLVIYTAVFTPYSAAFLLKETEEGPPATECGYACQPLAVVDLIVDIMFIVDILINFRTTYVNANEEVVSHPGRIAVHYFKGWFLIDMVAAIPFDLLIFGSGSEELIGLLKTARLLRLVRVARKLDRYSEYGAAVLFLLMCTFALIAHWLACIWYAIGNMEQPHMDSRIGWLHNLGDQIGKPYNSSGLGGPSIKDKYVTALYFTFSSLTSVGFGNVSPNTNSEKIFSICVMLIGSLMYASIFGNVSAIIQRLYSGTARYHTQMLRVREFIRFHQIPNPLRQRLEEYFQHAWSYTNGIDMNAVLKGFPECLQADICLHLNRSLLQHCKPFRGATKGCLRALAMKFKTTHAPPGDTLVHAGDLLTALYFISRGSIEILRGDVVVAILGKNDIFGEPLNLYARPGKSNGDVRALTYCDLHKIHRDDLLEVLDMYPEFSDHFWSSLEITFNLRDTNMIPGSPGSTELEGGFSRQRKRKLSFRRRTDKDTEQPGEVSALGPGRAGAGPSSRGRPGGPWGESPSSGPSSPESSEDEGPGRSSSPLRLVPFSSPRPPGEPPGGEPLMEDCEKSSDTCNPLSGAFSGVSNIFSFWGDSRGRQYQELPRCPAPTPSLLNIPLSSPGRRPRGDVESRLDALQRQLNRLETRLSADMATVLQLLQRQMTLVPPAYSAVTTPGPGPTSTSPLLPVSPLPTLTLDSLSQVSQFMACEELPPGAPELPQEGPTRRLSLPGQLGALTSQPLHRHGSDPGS
- assay_remarks: Inhibition of human ERG by patch clamp technique
The following compounds are shown together with reported IC50 values.

smiles_code	IC50
O=C(c1ccc(Oc2cccc(F)c2)nc1)N1CCCN(C2CCC2)CC1	5.4 µM
O=C(c1ccc(Oc2cccc(Cl)c2)nc1)N1CCCN(C2CCC2)CC1	1.6 µM
O=C(c1ccc(Oc2ccc(F)cc2)nc1)N1CCCN(C2CCC2)CC1	3.5 µM
N#Cc1cccc(Oc2ccc(C(=O)N3CCCN(C4CCC4)CC3)cn2)c1	> 10 µM
O=C(c1ccc(Oc2ccc(Cl)cc2)nc1)N1CCCN(C2CCC2)CC1	1.4 µM

====

- assay_remarks: Bioavailability in BALB/c mouse at 1 mg/kg, iv and 10 mg/kg, po
- Assay type: ADME, organism-based
- condition_set: in vivo
The following compounds are shown together with reported bioavailability values.

compound	bioavailability, %
O=C(c1ccc(Oc2ccc(F)cc2)nc1)N1CCCN(C2CCC2)CC1 [JNJ-39220675]	28
N#Cc1cccc(Oc2ccc(C(=O)N3CCCN(C4CCC4)CC3)cn2)c1	21

====

- assay_system: hERG (KCNH2) (Homo sapiens, UniProt Q12809)
- Sequence (Q12809 whole entry): as above
- assay_remarks: Displacement of radiolabeled astemizole from human ERG at 10 uM
- condition_set: probe radiolabeled astemizole

compound	units_label	inhibition at 10 µM
O=C(c1ccc(Oc2cccc(Cl)c2)nc1)N1CCCN(C2CCC2)CC1	%	28
O=C(c1ccc(Oc2ccc(Cl)cc2)nc1)N1CCCN(C2CCC2)CC1	%	23
N#Cc1cccc(Oc2ccc(C(=O)N3CCCN(C4CCC4)CC3)cn2)c1	%	23
O=C(c1ccc(Oc2ccc(F)cc2)nc1)N1CCCN(C2CCC2)CC1 [JNJ-39220675]	%	0
O=C(c1ccc(Oc2cccc(F)c2)nc1)N1CCCN(C2CCC2)CC1	%	0

====

- assay_system: UniProtKB Q9Y5N1
- Sequence (Q9Y5N1 whole entry): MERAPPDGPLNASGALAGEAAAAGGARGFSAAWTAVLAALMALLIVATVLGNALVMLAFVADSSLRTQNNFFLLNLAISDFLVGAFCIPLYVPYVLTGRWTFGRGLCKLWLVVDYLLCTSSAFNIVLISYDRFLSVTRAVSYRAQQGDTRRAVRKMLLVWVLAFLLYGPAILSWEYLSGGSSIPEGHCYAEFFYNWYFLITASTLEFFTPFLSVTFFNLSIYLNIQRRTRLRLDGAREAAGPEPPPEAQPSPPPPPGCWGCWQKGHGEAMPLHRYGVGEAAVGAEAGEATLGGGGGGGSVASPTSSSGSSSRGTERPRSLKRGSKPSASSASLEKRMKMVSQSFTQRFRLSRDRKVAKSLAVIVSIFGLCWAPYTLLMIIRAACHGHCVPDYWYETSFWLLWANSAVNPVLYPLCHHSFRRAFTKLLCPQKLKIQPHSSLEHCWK
- assay_remarks: Displacement of [125I]-iodoproxyfan from human recombinant histamine H3 receptor expressed in human SK-N-MC cells after 1 hr by scintillation counting
pKi: −log10 of the molar value.
measured_quantity: pKi

smiles_code	measured_number
O=C(c1cccc(Oc2ccc(Cl)c(Cl)c2)n1)N1CCCN(C2CCC2)CC1	6.80
CC(C)N1CCN(C(=O)c2ccc(Oc3ccccc3Cl)nc2)CC1	7.51
O=C(c1ccc(Oc2cccc(F)c2)nc1)N1CCCN(C2CCC2)CC1	8.39
CC(C)N1CCN(C(=O)c2ccc(Oc3ccc(F)cc3)nc2)CC1	7.10
O=C(c1ccc(Oc2cccc(F)c2)nc1)N1CCCN(C2CC2)CC1	7.80
CSc1ccc(Oc2ccc(C(=O)N3CCN(C(C)C)CC3)cn2)cc1	6.64
O=C(c1ccc(Oc2cccc(F)c2)cn1)N1CCCN(C2CCC2)CC1	8.26
O=C(c1ccc(Oc2cccc(Cl)c2)nc1)N1CCCN(C2CC2)CC1	7.77
CC(C)N1CCN(C(=O)c2ccc(Oc3ccc(Cl)cc3)nc2)CC1	7.14
CC(C)N1CCN(C(=O)c2ccc(Oc3ccc(Cl)c(Cl)c3)nc2)CC1	7.11
O=C(c1ccc(Oc2ccc(Cl)cc2)nc1)N1CCCN(C2CC2)CC1	7.89
O=C(c1ccc(Sc2ccc(F)cc2)nc1)N1CCCN(C2CCC2)CC1	7.54
O=C(c1ccc(Sc2ccc(F)cc2)cn1)N1CCCN(C2CCC2)CC1	8.34
CCN1CCCN(C(=O)c2ccc(Oc3ccc(F)cc3)nc2)CC1	7.47
O=C(c1ccc(Oc2cccc(Cl)c2)cn1)N1CCCN(C2CCC2)CC1	8.33
O=C(c1cncc(Oc2ccccc2)c1)N1CCCN(C2CCC2)CC1	7.96
O=C(c1cccc(Oc2ccc(Cl)c(Cl)c2)n1)N1CCCN(C2CC2)CC1	5.98
O=C(c1cc(Oc2ccccc2)ccn1)N1CCCN(C2CCC2)CC1	7.39
O=C(c1ccc(Oc2ccc(Cl)cc2)cn1)N1CCCN(C2CCC2)CC1	8.26
CC(C)N1CCN(C(=O)c2ccc(Oc3cccc(C#N)c3)nc2)CC1	6.96
N#Cc1cccc(Oc2ccc(C(=O)N3CCCN(C4CCC4)CC3)cn2)c1	8.74
O=C(c1ccc(Oc2ccc(Cl)cc2)nc1)N1CCCN(C2CCC2)CC1	7.23

====

- assay_remarks: Permeability from basolateral to apical side of human Caco-2 cells
- Type: ADME, cell-based
- condition_set: read-out: permeability

compound	units_label	Papp B→A
O=C(c1ccc(Oc2ccc(F)cc2)nc1)N1CCCN(C2CCC2)CC1 [JNJ-39220675]	×10⁻⁶ cm/s	36
N#Cc1cccc(Oc2ccc(C(=O)N3CCCN(C4CCC4)CC3)cn2)c1	×10⁻⁶ cm/s	25

====

The following compounds are shown together with reported Kb values.
- assay_system: Histamine H3 receptor (Rattus norvegicus)
- Sequence (Q9QYN8 whole entry): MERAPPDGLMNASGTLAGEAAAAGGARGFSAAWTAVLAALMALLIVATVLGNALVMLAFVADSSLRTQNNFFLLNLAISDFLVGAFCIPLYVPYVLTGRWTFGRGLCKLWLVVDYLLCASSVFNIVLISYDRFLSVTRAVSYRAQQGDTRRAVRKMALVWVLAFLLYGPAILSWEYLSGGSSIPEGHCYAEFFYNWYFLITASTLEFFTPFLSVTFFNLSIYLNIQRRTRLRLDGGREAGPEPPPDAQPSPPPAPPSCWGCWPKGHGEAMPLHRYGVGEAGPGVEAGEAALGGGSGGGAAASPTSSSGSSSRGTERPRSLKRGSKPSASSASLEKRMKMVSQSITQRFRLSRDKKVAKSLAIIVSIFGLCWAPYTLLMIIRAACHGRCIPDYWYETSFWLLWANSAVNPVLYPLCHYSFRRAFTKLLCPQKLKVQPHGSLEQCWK
- assay_remarks: Antagonist activity at rat histamine H3 receptor expressed in human SK-N-MC cells assessed as inhibition of forskolin-induced cAMP accumulation after 6 hrs
- Format: functional, cell-based
- condition_set: read-out: pA2 (converted)

smiles_code	Kb [nM]
O=C(c1ccc(Oc2cccc(Cl)c2)nc1)N1CCCN(C2CC2)CC1	11.5
O=C(c1ccc(Oc2ccc(Cl)cc2)nc1)N1CCCN(C2CCC2)CC1	3.98
O=C(c1ccc(Oc2ccccc2)nc1)N1CCCN(C2CCC2)CC1	3.72
O=C(c1ccc(Oc2cccc(Cl)c2)nc1)N1CCCN(C2CCC2)CC1	5.01
O=C(c1ccc(Oc2ccc(F)cc2)cn1)N1CCCN(C2CCC2)CC1	26.3
N#Cc1cccc(Oc2ccc(C(=O)N3CCCN(C4CCC4)CC3)cn2)c1	9.55

====

- assay_remarks: Plasma concentration in Wistar rat at 3 mg/kg, po after 30 mins
- Type: ADME, organism-based
- Design: dose 3 mg/kg, route oral
- condition_set: read-out: Drug uptake
measured_quantity: concentration at 0.5 h (ng/mL)

smiles_code	units_label	measured_number
O=C(c1ccc(Oc2ccc(F)cc2)nc1)N1CCCN(C2CCC2)CC1	ng/mL	150

====

- assay_remarks: Plasma concentration in Wistar rat at 10 mg/kg, po after 1 hr
- Assay type: ADME, organism-based
- Design: dose 10 mg/kg, route oral
- condition_set: read-out: Drug uptake
measured_quantity: log10(concentration at 1 h) (log10 of the value in µM)

smiles_code	log10(concentration at 1 h)
O=C(c1ccc(Oc2ccccc2)nc1)N1CCCN(C2CCC2)CC1	-0.68
O=C(c1ccc(Oc2cccc(Cl)c2)nc1)N1CCCN(C2CC2)CC1	-0.51
O=C(c1ccc(Oc2ccc(F)cc2)cn1)N1CCCN(C2CCC2)CC1	0.01
O=C(c1ccc(Oc2ccc(Cl)cc2)nc1)N1CCCN(C2CCC2)CC1	0.65
O=C(c1ccc(Oc2cccc(Cl)c2)nc1)N1CCCN(C2CCC2)CC1	-0.20
O=C(c1ccc(Sc2ccc(F)cc2)cn1)N1CCCN(C2CCC2)CC1	-1.52
O=C(c1ccc(Oc2ccc(F)cc2)nc1)N1CCCN(C2CCC2)CC1	0.17
O=C(c1ccc(Oc2cccc(F)c2)nc1)N1CCCN(C2CCC2)CC1	-0.44
N#Cc1cccc(Oc2ccc(C(=O)N3CCCN(C4CCC4)CC3)cn2)c1	0.78
O=C(c1ccc(Oc2ccc(Cl)c(Cl)c2)nc1)N1CCCN(C2CCC2)CC1	0.18

====

- assay_remarks: Half life in Beagle dog at 1 mg/kg, iv and 5 mg/kg, po
- Format: ADME, organism-based, Canis lupus familiaris
- condition_set: in vivo

smiles_code	units_label	half-life
N#Cc1cccc(Oc2ccc(C(=O)N3CCCN(C4CCC4)CC3)cn2)c1	h	0.9
O=C(c1ccc(Oc2ccc(F)cc2)nc1)N1CCCN(C2CCC2)CC1	h	2.6
O=C(c1ccc(Oc2ccc(F)cc2)cn1)N1CCCN(C2CCC2)CC1	h	1.9

====

The following molecules are shown together with reported Vd values.
- assay_remarks: Volume of distribution at steady state in BALB/c mouse at 1 mg/kg, iv and 10 mg/kg, po
- Assay type: ADME, organism-based
- condition_set: in vivo, read-out: Vdss

smiles_code	Vd (L/kg)
O=C(c1ccc(Oc2ccc(F)cc2)nc1)N1CCCN(C2CCC2)CC1	8.7
N#Cc1cccc(Oc2ccc(C(=O)N3CCCN(C4CCC4)CC3)cn2)c1	4.4

Source: ChEMBL document CHEMBL1177792
